B1: tRNA (parent)
chain: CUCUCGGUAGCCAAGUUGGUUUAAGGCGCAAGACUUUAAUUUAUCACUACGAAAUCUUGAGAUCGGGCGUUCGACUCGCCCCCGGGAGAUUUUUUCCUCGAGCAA

# Variants of: B1
# Procedure Summary: nonsense suppression (GFP-seq) (ratio to wild type); higher = more function; SUP4oc tRNA, yeast GFP reporter sort-seq
This sample holds only a part of the variants without activity.
Property Name: nonsense suppression

alteration="C80G G84A" result="≤ 0.026"

Lab note: each variant below needs its nonsense suppression filled in.
1. U4C G6U
2. G61C C81G
3. C12U A60G
4. A23U C75A

result:
[0.959, 0.248, 0.406, "≤ 0.026"]

The following variants each have a reported value; give each one's nonsense suppression.
1. C68U G85C
2. C5U C12G A13G C29A
3. U8C U63A
4. U63C G73A

result:
1: ≤ 0.026; 2: ≤ 0.026; 3: 0.0619; 4: 0.11
